Ref: ChEMBL document CHEMBL1132106

target: Vitamin D3 receptor (Sus scrofa) (UniProt A3RGC1); test: Binding affinity for porcine intestinal Vitamin D3 receptor (VDR) relative to 1,25(OH)2D3 (100)
Sequence (A3RGC1 whole entry): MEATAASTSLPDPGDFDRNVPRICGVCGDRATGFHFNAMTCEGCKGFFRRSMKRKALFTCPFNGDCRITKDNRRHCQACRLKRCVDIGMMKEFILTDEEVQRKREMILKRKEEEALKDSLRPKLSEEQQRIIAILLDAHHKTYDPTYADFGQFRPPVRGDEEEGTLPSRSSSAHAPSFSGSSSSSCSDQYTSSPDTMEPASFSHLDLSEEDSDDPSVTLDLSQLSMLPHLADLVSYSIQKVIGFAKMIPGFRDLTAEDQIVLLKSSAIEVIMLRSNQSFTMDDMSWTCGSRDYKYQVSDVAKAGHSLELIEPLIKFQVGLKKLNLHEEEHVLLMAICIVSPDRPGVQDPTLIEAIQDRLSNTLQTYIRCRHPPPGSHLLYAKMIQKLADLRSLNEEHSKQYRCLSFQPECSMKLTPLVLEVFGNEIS
MEASURED QUANTITY: Relative binding affinity

COMPOUND STRUCTURE STRING	MEASURED QUANTITY	READING
C=C1/C(=C\C=C2/CCC[C@]3(C)[C@@H]([C@H](C)OCCC(C)(C)O)CC[C@@H]23)C[C@@H](O)C[C@@H]1O	Relative binding affinity	18
C=C1/C(=C\C=C2/CCC[C@]3(C)[C@@H]([C@H](C)[C@@H](C)CCC(C)(C)O)CC[C@@H]23)C[C@@H](O)C[C@@H]1O	Relative binding affinity	33
C[C@H](CCCC(C)(C)O)[C@H](C)[C@@]1(C)CCC/C(=C\C=C2C[C@@H](O)C[C@H](O)C2)C1	Relative binding affinity	8
C=C1/C(=C/C=C2/CCC[C@]3(C)C([C@H](C)CC#CC(C)(C)O)=CC[C@@H]23)C[C@@H](O)C[C@@H]1O	Relative binding affinity	85
C=C1/C(=C\C=C2/CCC[C@]3(C)[C@@H]([C@H](C)[C@H](C)CCC(C)(C)O)CC[C@@H]23)C[C@@H](O)C[C@@H]1O	Relative binding affinity	1.7

[1] C[C@H](CCCC(C)(C)O)[C@H]1CC[C@H]2/C(=C/C=C3C[C@@H](O)C[C@H](O)C3)CCC[C@]12C
[2] C=C1/C(=C\C=C2/CCC[C@]3(C)[C@@H]([C@@H](C)CCCC(C)(C)O)CC[C@@H]23)C[C@@H](O)C[C@@H]1O
Problem: Endpoint returns the identifier whose Relative binding affinity is numerically larger, either 1 or 2 . State your choice using its label.
Result: 2
(2: 88, 1: 30)
